Data credit: paper PMC7293270

assay: Biliary excretion pharmacokinetics of Rho-123 after RT in freely moving rats; format: in vivo, Sprague-Dawley rats; settings: Sprague-Dawley, rat, bile, iv, 0.2 mg/kg, biliary excretion, RT9Gy, Rho-123 24 hr later (sequential)
endpoint: Cmax (ng/mL)
State the answer as a number, implicitly in ng/mL.

Query: Which Cmax is listed for COC(=O)c1ccccc1-c1c2ccc(=N)cc-2oc2cc(N)ccc12 ?
Result: 2070

---

experiment: Biliary excretion pharmacokinetics of Rho-123 after RT in freely moving rats; assay type: in vivo, Sprague-Dawley rats; conditions: Sprague-Dawley, rat, bile, iv, 0.2 mg/kg, biliary excretion, sham RT, Rho-123 0.2 mg/kg i.v., rats
endpoint: AUC(0-t)
Remember to follow the number with its unit.

Query: Any idea what AUC(0-t) was measured for COC(=O)c1ccccc1-c1c2ccc(=N)cc-2oc2cc(N)ccc12 ?
Result: 1880 ng·h/mL

---

assay: Plasma pharmacokinetics of sorafenib with RT, with or without CsA pretreatment, in freely moving rats; format: in vivo, Sprague-Dawley rats; conditions: Sprague-Dawley, rat, plasma, po, 40 mg/kg, sorafenib 40 mg/kg p.o. only (sham RT), rats
endpoint: Tmax
Reply with the number, then its unit.

Query: May I ask what Tmax has been recorded for CNC(=O)c1cc(Oc2ccc(NC(=O)Nc3ccc(Cl)c(C(F)(F)F)c3)cc2)ccn1 ?
Result: 3.75 h

---

experiment: Biliary excretion pharmacokinetics of Rho-123 after RT in freely moving rats; type: in vivo, Sprague-Dawley rats; details: Sprague-Dawley, rat, bile, iv, 0.2 mg/kg, biliary excretion, RT2Gy, Rho-123 10 min later (concurrent)
endpoint: clearance (mL/min/kg)
Field: numeric (mL/min/kg). Do not append units.

Query: Give its clearance value. Item: COC(=O)c1ccccc1-c1c2ccc(=N)cc-2oc2cc(N)ccc12
Result: 0.92

---

assay: Biliary excretion pharmacokinetics of Rho-123 after RT in freely moving rats; type: in vivo, Sprague-Dawley rats; settings: Sprague-Dawley, rat, bile, iv, 0.2 mg/kg, biliary excretion, sham RT, Rho-123 0.2 mg/kg i.v., rats
endpoint: Tmax (min)
Answer in min, number only, no unit symbol.

Query: Find the recorded Tmax belonging to COC(=O)c1ccccc1-c1c2ccc(=N)cc-2oc2cc(N)ccc12 [Rho-123, rhodamine 123] and report it.
Result: 14

---

Test: Plasma pharmacokinetics of sorafenib with RT, with or without CsA pretreatment, in freely moving rats
Format: in vivo, Sprague-Dawley rats
Conditions: Sprague-Dawley, rat, plasma, oral, 40 mg/kg, plasma, CsA 20 mg/kg i.p. + RT9Gy, sorafenib 40 mg/kg 1 hr later
Description: A freely moving rat model was designed for the current study[21] (Fig. 1A). […] Pharmacokinetic parameters, including the area under the concentration vs. time curve (AUC), terminal elimination phase t1/2, Cmax, MRT, total plasma clearance and Vss, were calculated using the PK calculation software WinNonlin Standard Edition, version 1.1 (Scientific Consulting, Apex, NC, USA) using a compartmental method.
endpoint: Cmax (ng/mL)
I only need the number, in ng/mL, no unit after it.

Query: Consider the molecule CNC(=O)c1cc(Oc2ccc(NC(=O)Nc3ccc(Cl)c(C(F)(F)F)c3)cc2)ccn1 [sorafenib, Sorafenib] and give its measured Cmax.
Result: 3740

---

test: Plasma pharmacokinetics of sorafenib with RT, with or without CsA pretreatment, in freely moving rats; assay type: in vivo, Sprague-Dawley rats; conditions: Sprague-Dawley, rat, plasma, oral, 40 mg/kg, plasma, CsA 20 mg/kg i.p. + RT2Gy, sorafenib 40 mg/kg 1 hr later
endpoint: Cmax (ng/mL)
The answer is to be given in ng/mL; state only the numeric part.

Query: Name the reported Cmax value associated with the compound CNC(=O)c1cc(Oc2ccc(NC(=O)Nc3ccc(Cl)c(C(F)(F)F)c3)cc2)ccn1 [sorafenib, Sorafenib]
Result: 1720

---

assay: Plasma pharmacokinetics of sorafenib with RT, with or without CsA pretreatment, in freely moving rats; type: in vivo, Sprague-Dawley rats; settings: Sprague-Dawley, rat, plasma, po, 40 mg/kg, RT2Gy, sorafenib 40 mg/kg 1 hr later
endpoint: Tmax
Give the number first and the unit second.

Query: Need Tmax, item CNC(=O)c1cc(Oc2ccc(NC(=O)Nc3ccc(Cl)c(C(F)(F)F)c3)cc2)ccn1
Result: 2.92 h

---

assay: Plasma pharmacokinetics of sorafenib with RT, with or without CsA pretreatment, in freely moving rats; type: in vivo, Sprague-Dawley rats; conditions: Sprague-Dawley, rat, plasma, oral, 40 mg/kg, plasma, CsA 20 mg/kg i.p. + RT9Gy, sorafenib 40 mg/kg 24 hr later
endpoint: Tmax
Remember to follow the number with its unit.

Query: So what does the record say about Tmax for CNC(=O)c1cc(Oc2ccc(NC(=O)Nc3ccc(Cl)c(C(F)(F)F)c3)cc2)ccn1 [sorafenib, Sorafenib] ?
Result: 3.92 h

---

experiment: Organ distribution of sorafenib in rats; format: in vivo, Sprague-Dawley rats; settings: Sprague-Dawley, rat, kidney, po, 40 mg/kg
endpoint: concentration at 6 h (ng/g)
Value expressed in ng/g; do not type the unit.

Query: Request the reported concentration at 6 h associated with CNC(=O)c1cc(Oc2ccc(NC(=O)Nc3ccc(Cl)c(C(F)(F)F)c3)cc2)ccn1
Result: 1930

---

Test: Plasma pharmacokinetics of sorafenib with RT, with or without CsA pretreatment, in freely moving rats
Type: in vivo, Sprague-Dawley rats
Conditions: Sprague-Dawley, rat, plasma, po, 40 mg/kg, RT9Gy, sorafenib 40 mg/kg 24 hr later
Experimental: A freely moving rat model was designed for the current study[21] (Fig. 1A). […] Pharmacokinetic parameters, including the area under the concentration vs. time curve (AUC), terminal elimination phase t1/2, Cmax, MRT, total plasma clearance and Vss, were calculated using the PK calculation software WinNonlin Standard Edition, version 1.1 (Scientific Consulting, Apex, NC, USA) using a compartmental method.
endpoint: Tmax
Kindly format the answer as number then unit.

Query: Bench note: what Tmax did CNC(=O)c1cc(Oc2ccc(NC(=O)Nc3ccc(Cl)c(C(F)(F)F)c3)cc2)ccn1 show?
Result: 3.08 h

---

test: Plasma pharmacokinetics of sorafenib with RT, with or without CsA pretreatment, in freely moving rats; type: in vivo, Sprague-Dawley rats; details: Sprague-Dawley, rat, plasma, po, 40 mg/kg, plasma, CsA 20 mg/kg i.p. + RT9Gy, sorafenib 40 mg/kg p.o. 24 hr later
endpoint: AUC(0-t) (ng·h/mL)
Give just the numeric value; ng·h/mL need not be written.

Query: # get_value(readout='AUC(0-t)', item= CNC(=O)c1cc(Oc2ccc(NC(=O)Nc3ccc(Cl)c(C(F)(F)F)c3)cc2)ccn1 )
Result: 12900

---

test: Plasma pharmacokinetics of sorafenib with RT, with or without CsA pretreatment, in freely moving rats; format: in vivo, Sprague-Dawley rats; conditions: Sprague-Dawley, rat, plasma, oral, 40 mg/kg, plasma, CsA 20 mg/kg i.p. + sorafenib 40 mg/kg
endpoint: Tmax (h)
Write down the numeric answer in h and omit the unit.

Query: Given the compound CNC(=O)c1cc(Oc2ccc(NC(=O)Nc3ccc(Cl)c(C(F)(F)F)c3)cc2)ccn1 , what is its reported Tmax?
Result: 4

---

assay: Plasma pharmacokinetics of sorafenib with RT, with or without CsA pretreatment, in freely moving rats; type: in vivo, Sprague-Dawley rats; details: Sprague-Dawley, rat, plasma, po, 40 mg/kg, plasma, CsA 20 mg/kg i.p. + RT9Gy, sorafenib 40 mg/kg p.o. 1 hr later
endpoint: AUC(0-t) (ng·h/mL)
Your answer should be a plain number; it is taken to be in ng·h/mL.

Query: # query: AUC(0-t) of entry CNC(=O)c1cc(Oc2ccc(NC(=O)Nc3ccc(Cl)c(C(F)(F)F)c3)cc2)ccn1
Result: 10100

---

test: Biliary excretion pharmacokinetics of Rho-123 after RT in freely moving rats; format: in vivo, Sprague-Dawley rats; conditions: Sprague-Dawley, rat, bile, iv, 0.2 mg/kg, biliary excretion, sham RT, Rho-123 0.2 mg/kg i.v., rats
endpoint: clearance (mL/min/kg)
Report the figure in mL/min/kg without appending any unit label.

Query: Quick check: clearance of COC(=O)c1ccccc1-c1c2ccc(=N)cc-2oc2cc(N)ccc12 ?
Result: 1.56

---

assay: Organ distribution of sorafenib in rats; assay type: in vivo, Sprague-Dawley rats; settings: Sprague-Dawley, rat, spleen, po, 40 mg/kg
endpoint: concentration at 6 h (ng/g)
Report the value in ng/g with no unit label.

Query: Look up concentration at 6 h: CNC(=O)c1cc(Oc2ccc(NC(=O)Nc3ccc(Cl)c(C(F)(F)F)c3)cc2)ccn1 [sorafenib, Sorafenib]
Result: 1420

---

assay: Plasma pharmacokinetics of sorafenib with RT, with or without CsA pretreatment, in freely moving rats; type: in vivo, Sprague-Dawley rats; conditions: Sprague-Dawley, rat, plasma, po, 40 mg/kg, RT9Gy, sorafenib 40 mg/kg 1 hr later
endpoint: Cmax (ng/mL)
Note: unit ng/mL is implicit; provide only the numeric part.

Query: Which Cmax value is on record for CNC(=O)c1cc(Oc2ccc(NC(=O)Nc3ccc(Cl)c(C(F)(F)F)c3)cc2)ccn1 ?
Result: 12300
